Target: JAK2 JH2 V617F (Homo sapiens, UniProt O60674, V617F)
Sequence (O60674 545-809 V617F limits assumed): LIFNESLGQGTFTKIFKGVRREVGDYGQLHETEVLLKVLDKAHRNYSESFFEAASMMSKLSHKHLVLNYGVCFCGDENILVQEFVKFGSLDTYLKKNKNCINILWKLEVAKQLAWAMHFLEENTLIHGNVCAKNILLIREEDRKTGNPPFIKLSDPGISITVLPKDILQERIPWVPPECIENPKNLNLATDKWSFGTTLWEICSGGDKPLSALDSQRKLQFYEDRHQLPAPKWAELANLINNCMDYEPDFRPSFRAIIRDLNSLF
Assay: Fluorescence polarization binding assay, Bodipy FL-ATP tracer
Design: Hyperactive mutation V617F in the JAK2 regulatory pseudokinase domain (JH2); His tag (C); made in house; host or cells: High Five or Sf9 insect cells
Details: FP, Bodipy FL-ATP tracer; lower detection limit of assay 3.5 µM; read-out: IC50 value for binding against JAK2 JH2 V617F
measured_parameter: IC50 (µM)

Worked cases, answers included:
COC(=O)c1ccc(Nc2[nH]cnc3ncnc2-3)cc1 [Compound 8]: 123
Oc1cccc(/C=N/Nc2ncnc3[nH]cnc23)c1 [Compound 12]: 263

1 = COc1ccc(-c2c(C(F)(F)F)nn3c(=O)cc(-c4cccc([N+](=O)[O-])c4)[nH]c23)cc1 [Compound 13]
2 = COc1cc(/C=N/Nc2ncnc3[nH]cnc23)cc(Br)c1O [Compound 10]
Between 1 and 2 , whose recorded IC50 is greater? Indicate which entry you chose by stating its label.
2

====

Target: JAK2 JH1 D976N (Homo sapiens, UniProt O60674, D976N)
Sequence (O60674 836-1132 D976N): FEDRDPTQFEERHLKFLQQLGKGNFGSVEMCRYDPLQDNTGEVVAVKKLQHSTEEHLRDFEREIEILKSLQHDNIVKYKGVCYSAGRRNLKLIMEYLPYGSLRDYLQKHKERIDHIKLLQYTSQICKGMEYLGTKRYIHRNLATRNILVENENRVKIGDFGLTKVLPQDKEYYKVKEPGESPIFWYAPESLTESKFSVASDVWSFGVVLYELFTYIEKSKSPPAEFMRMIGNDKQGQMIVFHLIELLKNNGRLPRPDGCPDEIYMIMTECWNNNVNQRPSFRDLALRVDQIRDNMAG
Assay: Fluorescence polarization binding assay, Bodipy FL-ATP tracer
Conditions: read-out: inhibition-% of tracer binding to JAK2 JH1
measured_parameter: inhibition at 100 µM (%)

CN(Cc1nc(N)nc(Nc2ccccc2)n1)Cc1cccc(Cl)c1Cl: 4

a = COc1ccc(CNc2n[nH]c(N)n2)cc1
b = Cc1cc(=O)n2[nH]c(C(F)(F)F)c(-c3ccccc3)c2n1
c = Nc1nc(CSCc2ccc(F)cc2)nc(Nc2ccccc2)n1
d = Cc1ccc(Nc2nc(N)nc(CN(C)Cc3ccc(Br)s3)n2)cc1
List items by inhibition at 100 µM in falling order. Give the labels in the order requested.
b, c, a, d
(b: 34%, c: 18%, a: 10%, d: 0%)

====

Molecular target: JAK1 JH2 (Homo sapiens)
Sequence (P23458 553-836): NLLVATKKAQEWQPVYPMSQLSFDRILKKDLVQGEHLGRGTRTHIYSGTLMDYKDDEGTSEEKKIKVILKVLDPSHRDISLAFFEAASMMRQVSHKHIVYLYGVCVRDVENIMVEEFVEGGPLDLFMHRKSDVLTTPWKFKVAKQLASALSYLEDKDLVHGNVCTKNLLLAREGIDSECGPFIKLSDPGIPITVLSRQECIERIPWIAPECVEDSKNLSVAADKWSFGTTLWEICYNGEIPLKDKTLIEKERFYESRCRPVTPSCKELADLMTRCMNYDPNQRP
Experiment: More sensitive FP binding assay, Bodipy FL-labeled JNJ-7706621 tracer
Below, each entry is listed alongside its reported IC50.
# unit: nM | format: bare number

c1nc2nc(Nc3ccc(N4CCOCC4)cc3)nc(NC3CCCCC3)c2[nH]1 [Compound 7, Reversine, reference compound]: 150

--- query ---
Enter recorded IC50 with JAK1 JH2 (Homo sapiens) for O=C(Nc1c[nH]nc1-c1nc2ccc(CN3CCOCC3)cc2[nH]1)NC1CC1 [Compound 2, AT9283, reference compound] here.
110

====

Test system: SET-2 cells
Assay: alamarBlue cell viability assay
Assay type: cell-based
Conditions: Homo sapiens; SET-2 (JAK2 V617F heterozygous), 48 h, alamarBlue; upper detection limit 40 µM; read-out: Cell Viability IC50 SET-2
measured_parameter: IC50 (µM)
# unit: µM | format: bare number

Identify the reported IC50 for the following entry. c1nc2nc(Nc3ccc(N4CCOCC4)cc3)nc(NC3CCCCC3)c2[nH]1 [Compound 7, Reversine, reference compound]
4
